Molecular target: TDO2 (Homo sapiens, UniProt P48775)
Construct: decreased levels of NFK in SW48 cells (high TDO expressing cells)
Sequence (P48775 whole entry): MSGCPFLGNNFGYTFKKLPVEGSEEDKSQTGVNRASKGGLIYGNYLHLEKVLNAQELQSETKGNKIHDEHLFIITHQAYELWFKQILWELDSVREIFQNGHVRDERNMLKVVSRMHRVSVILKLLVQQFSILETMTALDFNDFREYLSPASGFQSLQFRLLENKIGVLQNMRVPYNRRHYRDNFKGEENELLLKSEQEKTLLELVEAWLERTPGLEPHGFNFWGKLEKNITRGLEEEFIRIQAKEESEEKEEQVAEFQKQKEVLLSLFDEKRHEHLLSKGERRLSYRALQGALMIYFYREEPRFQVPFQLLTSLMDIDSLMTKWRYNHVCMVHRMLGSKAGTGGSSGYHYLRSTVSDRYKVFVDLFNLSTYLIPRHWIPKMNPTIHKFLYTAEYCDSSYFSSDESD
Test: TDO2 cell assay (NFK GreenScreen, SW48 cells)
Format: cell-based
Conditions: SW48 cells (high TDO expressing), 200 uM tryptophan, 24 hours; Table 3; read-out: TDO2 Cell Fluor EC50
observedProperty: EC50 (µM)

A = OC1(C2c3ccccc3-c3cncn32)CCCC1 (racemic) [Example 55]
B = OC1c2cccn2CCC1C1c2ccccc2-c2cncn21 (single isomer, unassigned) [Example 136c]
C = NS(=O)(=O)c1ccc2c(c1)C(O)C(C1c3ccccc3-c3cncn31)CC2 (single isomer, unassigned) [Example 105e]
D = O[C@@H]1CN(C2COC2)CC[C@H]1[C@H]1c2ccccc2-c2cncn21 [Example 103]
E = OC1(C2c3ccccc3-c3cncn32)CCCc2ccncc21 (single isomer, unassigned) [Example 141b]
Query block: Order by EC50, smallest first, the items presented above. List the labels according to the requested ordering.
Result block: C, A, E, B, D
(C: 0.46 µM, A: 1.6 µM, E: 3.8 µM, B: 6.7 µM, D: 12 µM)
